# Protocol summary: modulators of CD8 T cell-vesicle binding, confirmation, cherry-picked primary hits, two concentrations (AID 2810);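 also: lower values mean blocking of vesicle binding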
# Experimental context: 2C CD8+ T cell-vesicle binding, flow cytometry; CD8+/vesicle+ events; at 15.4 µM; stronger effect = lower value
Screen size: about 1,200 compounds; about 65 (5%) were called active. The sample holds actives, similar compounds and a random draw of the others, so the mix is not that of the screen.
Property label: double positive events (%)
Answer with a number only, understood to be in %.

Data point: CCOC(=O)CSc1nnnn1-c1cc(OC)c(Cl)cc1OC ; double positive events = 5.9

Data point: CCCc1nnc(NC(=O)c2ccc(S(=O)(=O)N(C)c3ccccc3OC)cc2)s1 ; double positive events = 6

Data point: CC(C)C(=O)N1CCC2(CC1)Oc1ccc(Cl)cc1C(=O)C21CC(c2cccnc2)=NO1 (configuration not stated) ; double positive events = 15

Data point: Cc1cccc(OCC(=O)NC(Cc2ccccc2)C(=O)O)c1 (configuration not stated) ; double positive events = 11.5

Data point: O=C(COc1ccccc1)Nc1cc(S(=O)(=O)N2CCOCC2)ccc1N1CCCC1 ; double positive events = 4.1

Data point: CC1CCN(S(=O)(=O)c2csc(C(=O)Nc3ccccc3)c2)CC1 ; double positive events = 23.8

Data point: Cc1ccc(S(=O)(=O)Nc2c3ccccc3nc(=O)n2-c2ccccc2)cc1 ; double positive events = 7.9

Data point: CC(/C=C/c1ccc(C)o1)=C\C(=O)O ; double positive events = 19.8

Data point: CCCOc1ccc(C2=CC(=O)C[C@H](c3ccc(OC)cc3)C2)cc1 ; double positive events = 10.3

Data point: Cc1noc(C)c1C(=O)OC(C)C(=O)N1CCc2ccccc21 (configuration not stated) ; double positive events = 4.4

Data point: O=C(NCC1CCCO1)C(=O)NCC(c1ccco1)N1CCN(c2ccc(F)cc2)CC1 (configuration not stated) ; double positive events = 10.4

Data point: Cc1nnc(NC(=O)c2ccc(S(=O)(=O)N(C)c3ccccc3)cc2)s1 ; double positive events = 37.9

Data point: O=C(Nc1nc2ccccc2n1CCN1CCOCC1)c1ccc(Cn2cc([N+](=O)[O-])cn2)o1 ; double positive events = 23.8

Data point: COc1ccc(OC)c(NC(=O)c2ccccc2SC)c1 ; double positive events = 35.3

Data point: COc1ccc(C2=CC(=O)C[C@H](c3ccc4c(c3)OCO4)C2)cn1 ; double positive events = 4.4

Data point: O=C(NCc1cccnc1)C(=O)NCC(c1ccco1)N1CCN(c2ccccc2)CC1 (configuration not stated) ; double positive events = 6.1

Data point: CCN(Cc1ccccc1)C(=O)c1ccc(C)c(S(=O)(=O)N2CCCCC2)c1 ; double positive events = 30.2

Data point: CCOC(=O)CSc1nnc(-c2ccc(Cl)cc2Cl)o1 ; double positive events = 10.1

Data point: COc1ccc(CNC(=O)c2cccnc2SC)cc1OC ; double positive events = 2

Data point: COc1ccc(CNC(=O)COC(=O)CCN2C(=O)C3CC=CCC3C2=O)cc1OC (configuration not stated) ; double positive events = 29.1

Data point: Cc1ncc([N+](=O)[O-])n1Cc1cccc(F)c1 ; double positive events = 11.5

Data point: O=c1[nH]c(CN(CCc2ccccc2)S(=O)(=O)c2ccc(Cl)cc2)nc2ccccc12 ; double positive events = 16.7

* * *

# Protocol summary: modulators of CD8 T cell-vesicle binding, confirmation, cherry-picked primary hits, two concentrations (AID 2810);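 also: lower values mean blocking of vesicle binding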;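 as to percent response (vesicle binding): ratio of mean FL2 vesicle stain of CD8+ cells to that row's control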
# Experimental context: 2C CD8+ T cell-vesicle binding, flow cytometry; response; at 7.7 µM
The campaign covered roughly 1,200 compounds. About 65 (5%) were called active. This is one part of a sample in which actives are shown more often than they occur.
Values of percent response (vesicle binding) strictly less than 300% map to fulfilled, and values of at least 300% map to not fulfilled.

Ask | Please let me know if CN(CC(=O)Nc1cccc(F)c1)C(=O)c1ccc(S(=O)(=O)N2CCCC2)cc1 shows percent response (vesicle binding) below 300%.
Reply | fulfilled

Ask | Please let me know if O=C(c1ccc(Cn2c(=S)[nH]c3ccccc3c2=O)cc1)N1CCN(c2ccccn2)CC1 shows percent response (vesicle binding) below 300%.
Reply | not fulfilled

Ask | Please let me know if COc1ccc(NCc2nc3ccccc3n2CCOc2ccccc2)cc1 shows percent response (vesicle binding) below 300%.
Reply | fulfilled

Ask | Please let me know if CCCCNS(=O)(=O)c1ccc(OCC(=O)OC)cc1 shows percent response (vesicle binding) below 300%.
Reply | not fulfilled

Ask | Please let me know if COc1ccc(NC(=O)CN2CCN(S(=O)(=O)c3ccc(Cl)cc3)CC2)cc1 shows percent response (vesicle binding) below 300%.
Reply | fulfilled

Ask | Please let me know if Cc1cccc(C(=O)OCC(=O)Nc2c(C)n(C)n(-c3ccccc3)c2=O)c1 shows percent response (vesicle binding) below 300%.
Reply | not fulfilled

Ask | Please let me know if Cc1ccccc1N=C1SC(CC(=O)Nc2ccc3ccccc3c2)C(=O)N1Cc1ccccn1 (stereo not given) shows percent response (vesicle binding) below 300%.
Reply | fulfilled

Ask | Please let me know if CC(NS(=O)(=O)c1ccc(Cl)c(Cl)c1)C(=O)OCC(=O)N1CCCCCC1 (stereo not given) shows percent response (vesicle binding) below 300%.
Reply | fulfilled

Ask | Please let me know if O=C(Cc1cccc(NC(=O)C2CCCN(C(=O)C3CC3)C2)c1)Nc1cccc(C(=O)N2CCCC2)c1 (stereo not given) shows percent response (vesicle binding) below 300%.
Reply | not fulfilled

Ask | Please let me know if c1coc(-c2nc3c4c5c(sc4ncn3n2)CCCC5)c1 shows percent response (vesicle binding) below 300%.
Reply | fulfilled
